Test system: T cell blast formation in human blood
method: In vitro inhibition of T cell blast formation in human blood (human whole blood blast formation, PHA stimulated, flow cytometry)
Type: cell-based
measurement.setup: Test Dose 1 × 10^−7 (unit not given), 72 hours, mean where multiple measurements
readout.kind: % Inhibition of T cell blast formation (%)
Value expressed in %; do not type the unit.

// below: answered molecules
1) O=C(Nc1ccc(C(=NO)c2ccc(F)cc2F)cc1)C1CC(c2cccnc2)=NO1 (stereo not drawn) : 81
2) O=C(c1ccc(NC(=O)C2CC(c3cccnc3)=NO2)cc1)c1ccccn1 (single isomer, unassigned) : 80

Below: the item to evaluate.
State its % Inhibition of T cell blast formation for this molecule: COc1ccc(C(=NO)c2ccc(NC(=O)C3CC(c4cccnc4)=NO3)cc2)c(OC)c1 (stereo not drawn) 82
